# target: CDK8/Cyclin C (Homo sapiens) (UniProt P49336+P24863)
# experiment summary: Inhibition of recombinant full length His tagged human CDK8/Cyclin C expressed in Baculovirus at 200 nM incubated for 60 mins in presence of ATP by ADP-Glo kinase assay
measurement kind: inhibition (%)

Example results:
O=c1cc(-c2ccccc2)oc2cc(-c3ccccc3)cc(O)c12    46
O=c1cc(-c2ccccc2)oc2cc(-c3ccc(CN4CCOCC4)cc3)cc(O)c12    43
CCc1ccc(NC(=O)c2cc(O)cc(-c3ccc(C(=O)N4CCNCC4)cc3)c2)cc1    48
O=C(Nc1cccc(C(F)(F)F)c1)c1cncc(-c2ccc(C(=O)N3CCNCC3)cc2)c1    24
O=C(c1ccc(-c2cc(O)c3c(=O)cc(-c4ccccc4)oc3c2)cc1)N1CCNCC1    75
CC(=O)Nc1ccccc1NC(=O)c1cncc(-c2ccc(C(=O)N3CCNCC3)cc2)c1    47
Nc1ccc(NC(=O)c2cc(O)cc(-c3ccc(C(=O)N4CCNCC4)cc3)c2)cc1    31
O=C(c1ccc(-c2cc(O)c3c(=O)cc(-c4ccccc4)oc3c2)cc1)N1CCOCC1    6
Nc1ccc(NC(=O)c2cncc(-c3ccc(C(=O)N4CCNCC4)cc3)c2)cc1    34
COc1ccc(-c2cc(O)c3c(=O)cc(-c4ccccc4)oc3c2)cc1    47

A = Cn1cc(-c2cc(O)c3c(=O)cc(-c4ccccc4)oc3c2)cn1
B = CCN1CCN(C(=O)c2ccc(-c3cc(O)c4c(=O)cc(-c5ccccc5)oc4c3)cc2)CC1
C = CC(C)c1ccc(NC(=O)c2cc(O)cc(-c3ccc(C(=O)N4CCNCC4)cc3)c2)cc1
D = O=c1cc(-c2ccccc2)oc2cc(-c3ccsc3)cc(O)c12
E = O=C(c1ccc(-c2cc(O)c3c(=O)cc(-c4ccccc4)oc3c2)cc1)N1CCSCC1
Request: Rank the 5 molecules: largest inhibition first, smallest last. I would appreciate it if you listed the labels in the requested order.
Response: B, C, E, A, D
(B: 57%, C: 28%, E: 19%, A: 11%, D: 6%)

A = COc1ccccc1NC(=O)c1cncc(-c2ccc(C(=O)N3CCNCC3)cc2)c1
B = Nc1ccccc1NC(=O)c1cncc(-c2ccc(C(=O)N3CCNCC3)cc2)c1
Request: From the items above, decide which of A and B has the lower inhibition reading. Kindly state the label of the option you pick.
Response: B

---

# target: CDK8/Cyclin C (Homo sapiens) (UniProt P49336+P24863)
# experiment summary: Inhibition of recombinant full length His tagged human CDK8/Cyclin C expressed in Baculovirus at 200 nM incubated for 60 mins in presence of ATP by ADP-Glo kinase assay
measurement kind: inhibition (%)

Below are worked cases with known answers.
Nc1cccc(NC(=O)c2cc(O)cc(-c3ccc(C(=O)N4CCNCC4)cc3)c2)c1    39
COc1ccc(NC(=O)c2cc(O)cc(-c3ccc(C(=O)N4CCNCC4)cc3)c2)cc1    61
CCCN1CCN(C(=O)c2ccc(-c3cc(O)c4c(=O)cc(-c5ccccc5)oc4c3)cc2)CC1    29
CC(C)c1ccc(NC(=O)c2cncc(-c3ccc(C(=O)N4CCNCC4)cc3)c2)cc1    62
CCc1ccc(-c2cc(O)c3c(=O)cc(-c4ccccc4)oc3c2)cc1    31
Cc1cccc(NC(=O)c2cncc(-c3ccc(C(=O)N4CCNCC4)cc3)c2)c1    76
O=C(Nc1ccccc1)c1ccnc(-c2ccc(C(=O)N3CCNCC3)cc2)c1    65
Cc1ccc(NC(=O)c2cncc(-c3ccc(C(=O)N4CCNCC4)cc3)c2)cc1    77
O=C(Nc1cccc(Cl)c1)c1cncc(-c2ccc(C(=O)N3CCNCC3)cc2)c1    47
CN(C)c1ccc(-c2cc(O)c3c(=O)cc(-c4ccccc4)oc3c2)cc1    62

1 = O=C(Nc1cccc(F)c1)c1cncc(-c2ccc(C(=O)N3CCNCC3)cc2)c1
2 = O=C(Nc1ccccc1F)c1cc(O)cc(-c2ccc(C(=O)N3CCNCC3)cc2)c1
Request: Pick one: 1 or 2 . Which one has the lower reported inhibition? Reply with the label of the item you choose.
Response: 2

I = CC(=O)Nc1ccc(NC(=O)c2cncc(-c3ccc(C(=O)N4CCNCC4)cc3)c2)cc1
II = O=C(Nc1ccc(F)cc1)c1cc(O)cc(-c2ccc(C(=O)N3CCNCC3)cc2)c1
Request: Of the two listed items, which has the higher inhibition? First: I Second: II // return label of chosen record
Response: I
(I: 35%, II: 12%)

---

# target: CDK8/Cyclin C (Homo sapiens) (UniProt P49336+P24863)
# experiment summary: Inhibition of recombinant full length His tagged human CDK8/Cyclin C expressed in Baculovirus at 200 nM incubated for 60 mins in presence of ATP by ADP-Glo kinase assay
measurement kind: inhibition (%)

Here are 3 molecules together with their reported answers.
O=c1cc(-c2ccccc2)oc2cc(-c3ccc(N4CCOCC4)cc3)cc(O)c12    19
O=c1cc(-c2ccccc2)oc2cc(-c3ccc(Cl)cc3)cc(O)c12    31
O=C(Nc1ccccc1)c1ccc(O)c(-c2ccc(C(=O)N3CCNCC3)cc2)c1    57

I = Cc1ccc(NC(=O)c2cc(O)cc(-c3ccc(C(=O)N4CCNCC4)cc3)c2)cc1
II = O=C(NC1CCCCC1)c1cncc(-c2ccc(C(=O)N3CCNCC3)cc2)c1
Request: // compare measured inhibition between I and II ; output the lower one Pick one and reply with its label.
Response: I

1 = Nc1ncc(C(=O)Nc2ccccc2)cc1-c1ccc(C(=O)N2CCNCC2)cc1
2 = CC(C)c1cccc(NC(=O)c2cc(O)cc(-c3ccc(C(=O)N4CCNCC4)cc3)c2)c1
Request: Pick the one with the larger inhibition: 1 vs 2 Refer to your chosen entry by its label in the reply.
Response: 1
(1: 44%, 2: 29%)

P = CCc1ccc(NC(=O)c2cncc(-c3ccc(C(=O)N4CCNCC4)cc3)c2)cc1
Q = CN1CCN(Cc2ccc(-c3cc(O)c4c(=O)cc(-c5ccccc5)oc4c3)cc2)CC1
Request: Which has the higher inhibition, P or Q ? Response format: the label of the selected entry.
Response: P
(P: 71%, Q: 25%)

---

# target: CDK8/Cyclin C (Homo sapiens, UniProt P49336)
# Sequence (P49336 whole entry): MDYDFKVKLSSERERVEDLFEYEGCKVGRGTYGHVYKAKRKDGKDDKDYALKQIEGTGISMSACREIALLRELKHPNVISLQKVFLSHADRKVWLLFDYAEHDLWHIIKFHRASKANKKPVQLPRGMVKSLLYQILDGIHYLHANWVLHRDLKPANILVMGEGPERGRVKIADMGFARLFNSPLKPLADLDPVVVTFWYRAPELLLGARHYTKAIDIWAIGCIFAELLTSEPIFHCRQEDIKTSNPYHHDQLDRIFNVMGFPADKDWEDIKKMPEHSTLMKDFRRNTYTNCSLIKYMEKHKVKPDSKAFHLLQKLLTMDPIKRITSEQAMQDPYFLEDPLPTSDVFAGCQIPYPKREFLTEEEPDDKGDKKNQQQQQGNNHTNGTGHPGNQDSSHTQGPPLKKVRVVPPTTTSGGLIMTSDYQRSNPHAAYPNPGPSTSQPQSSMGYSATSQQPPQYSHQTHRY
# Sequence (P24863 whole entry, further chain): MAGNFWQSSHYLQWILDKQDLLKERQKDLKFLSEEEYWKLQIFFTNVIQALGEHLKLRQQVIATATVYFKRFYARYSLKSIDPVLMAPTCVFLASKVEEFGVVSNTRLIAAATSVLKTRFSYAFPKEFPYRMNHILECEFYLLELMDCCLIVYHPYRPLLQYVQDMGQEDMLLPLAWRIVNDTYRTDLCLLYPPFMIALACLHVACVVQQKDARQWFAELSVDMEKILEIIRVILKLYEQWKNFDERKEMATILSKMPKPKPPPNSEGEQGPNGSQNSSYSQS
# experiment summary: Inhibition of recombinant full length His tagged human CDK8/Cyclin C expressed in Baculovirus incubated for 60 mins in presence of ATP by ADP-Glo kinase assay
measurement kind: IC50 (µM)

CCc1ccccc1NC(=O)c1cncc(-c2ccc(C(=O)N3CCNCC3)cc2)c1    0.056
COc1cccc(NC(=O)c2cncc(-c3ccc(C(=O)N4CCNCC4)cc3)c2)c1    0.065
COc1ccc(NC(=O)c2cncc(-c3ccc(C(=O)N4CCNCC4)cc3)c2)cc1    0.081
Cc1ccccc1NC(=O)c1cncc(-c2ccc(C(=O)N3CCNCC3)cc2)c1    0.07
CC(=O)Nc1cccc(NC(=O)c2cncc(-c3ccc(C(=O)N4CCNCC4)cc3)c2)c1    0.134

A = O=c1cc(-c2ccccc2)oc2cc(-c3ccc(N4CCNCC4)cc3)cc(O)c12
B = O=C(Nc1cccc(C(F)(F)F)c1)c1cncc(-c2ccc(C(=O)N3CCNCC3)cc2)c1
Request: Which one would you say has the larger IC50 value: A , or B ? Identify your pick by its label.
Response: B
(B: 1.14 µM, A: 0.19 µM)

P = CN(C)c1ccc(-c2cc(O)c3c(=O)cc(-c4ccccc4)oc3c2)cc1
Q = CCc1ccc(NC(=O)c2cncc(-c3ccc(C(=O)N4CCNCC4)cc3)c2)cc1
Request: Quick check, higher IC50 between P and Q ? Returns: label corresponding to the selected item.
Response: P
(P: 0.177 µM, Q: 0.096 µM)

---

Here the recorded Ratio is given for each entry.
# experiment summary: Transcriptional activity of AP-1 in R848-stimulated mouse BMDC cells transfected with pAP1-luc assessed as ratio of AP-1 activity at 5 uM treated for 24 hrs followed by R848 stimulation for 4 hrs by luminescence based microplate reader analysis relative to control
# Type: functional
# condition parameters: time 28 hrs
Write no unit; give the number alone.

Here are 5 compounds together with their reported answers.
COc1c(O)cc(O)c2c(=O)cc(-c3ccccc3)oc12 [WOGONIN]    1.4
CN1CCN(Cc2ccc(-c3cc(O)c4c(=O)cc(-c5ccccc5)oc4c3)cc2)CC1    1.1
O=C(Nc1ccccc1)c1cncc(-c2ccc(C(=O)N3CCNCC3)cc2)c1    2.8
Nc1ncc(C(=O)Nc2ccccc2)cc1-c1ccc(C(=O)N2CCNCC2)cc1    1.7
O=C(Nc1cccc(C(F)(F)F)c1)c1cncc(-c2ccc(C(=O)N3CCNCC3)cc2)c1    1.41

Request: Would you mind telling me what Ratio value was observed for `O=C(Nc1ccc(Cl)cc1)c1cncc(-c2ccc(C(=O)N3CCNCC3)cc2)c1` ?
Response: 1.55

Request: Moving on to the next compound: `CCc1cccc(NC(=O)c2cncc(-c3ccc(C(=O)N4CCNCC4)cc3)c2)c1`
Response: 1.7

Request: Another compound to check: `O=C(Nc1ccccc1)c1cc(-c2ccc(C(=O)N3CCNCC3)cc2)ccc1O`
Response: 1.2

Request: Can you handle `Cc1ccc(-c2cc(O)c3c(=O)cc(-c4ccccc4)oc3c2)cc1` next?
Response: 2.6

Request: How about `O=c1cc(-c2ccccc2)oc2cc(-c3ccncc3)cc(O)c12` ?
Response: 1.2
